Reference source for all entries: paper PMC9721025

method-notes: Pharmacokinetics in beagles, single-dose regimen of TRQI (i.v.) or TRQC (oral), plasma LC-MS/MS
Assay type: in vivo, beagle
experimental-parameters: male, beagle, dog, plasma, po, 0.09 g/kg, single TRQCs 0.09 g/kg; beagle No 1; read-out: AUC0–24 h
Procedure: 100 μL plasma sample was drawn and transferred to 1.5 mL centrifuge tube prior to 300 μL protein precipitant (3:1 [v/v] methanol/acetonitrile, containing 0.1% formic acid and 100 ng/mL IS) was added, and then the sample was vortex-mixed for 3 min. The mixture was centrifuged at 20,000 ×g for 10 min, and 100 μL supernatant was transferred to the injection vial and analyzed directly by LC–MS/MS. […]
property: AUC(0-t) (ng·h/mL)

>  <smiles-repr>
O=C(O)[C@H]1O[C@@H](Oc2cc3oc(-c4ccccc4)cc(=O)c3c(O)c2O)[C@H](O)[C@@H](O)[C@@H]1O

>  <meas-value>
16

$$$$

I = O=C(/C=C/c1ccc(O)c(O)c1)O[C@@H]1C[C@](O)(C(=O)O)C[C@@H](O)[C@H]1O
II = C[C@H](CCC(=O)O)[C@H]1CC[C@H]2[C@@H]3[C@@H](O)C[C@@H]4C[C@H](O)CC[C@]4(C)[C@H]3CC[C@]12C
III = C[C@H](CCC(=O)O)[C@H]1CC[C@H]2[C@@H]3[C@H](O)C[C@@H]4C[C@H](O)CC[C@]4(C)[C@H]3CC[C@]12C
-- ask Highest AUC(0-t) first, then in falling order down to the smallest. Rank the items, then write their labels in that order.
-- reply II, III, I
(II: 1700 ng·h/mL, III: 104 ng·h/mL, I: 21.1 ng·h/mL)

###

method-notes: Pharmacokinetics in beagles, multiple-dose regimen (once per day for 7 days) of TRQI or TRQC, plasma LC-MS/MS
Format: in vivo
experimental-parameters: female, beagle, dog, iv, 0.5 mL/kg, TRQI 0.5 mL/kg for 7 days, beagle No. 5
property: AUC(0-inf) (ng·h/mL)

Worked examples, 2 molecules total:
>  <molecule>
O=C(O)[C@H]1O[C@@H](Oc2cc3oc(-c4ccccc4)cc(=O)c3c(O)c2O)[C@H](O)[C@@H](O)[C@@H]1O [Baicalin, baicalin]

>  <AUC(0-inf) [ng·h/mL]>
711

$$$$
>  <molecule>
C[C@H](CCC(=O)O)[C@H]1CC[C@H]2[C@@H]3[C@@H](O)C[C@@H]4C[C@H](O)CC[C@]4(C)[C@H]3CC[C@]12C [Ursodeoxycholic acid, ursodeoxycholic acid]

>  <AUC(0-inf) [ng·h/mL]>
4220

$$$$

P = O=C(/C=C/c1ccc(O)c(O)c1)O[C@@H]1C[C@](O)(C(=O)O)C[C@@H](O)[C@H]1O [Chlorogenic acid, chlorogenic acid]
Q = C[C@H](CCC(=O)O)[C@H]1CC[C@H]2[C@@H]3[C@H](O)C[C@@H]4C[C@H](O)CC[C@]4(C)[C@H]3CC[C@]12C [Chenodeoxycholic acid, chenodeoxycholic acid]
-- ask Form field 'greater AUC(0-inf)' accepts P or Q ; which applies? Give the chosen item's label as your response.
-- reply Q

###

method-notes: Pharmacokinetics in beagles, multiple-dose regimen (once per day for 7 days) of TRQI or TRQC, plasma LC-MS/MS
Assay type: in vivo
experimental-parameters: female, beagle, dog, iv, 0.5 mL/kg, TRQI 0.5 mL/kg for 7 days, beagle No. 6
property: AUC(0-inf) (ng·h/mL)

>  <smiles-repr>
O=C(O)[C@H]1O[C@@H](Oc2cc3oc(-c4ccccc4)cc(=O)c3c(O)c2O)[C@H](O)[C@@H](O)[C@@H]1O

>  <AUC(0-inf) (ng·h/mL)>
1290

$$$$

I = C[C@H](CCC(=O)O)[C@H]1CC[C@H]2[C@@H]3[C@@H](O)C[C@@H]4C[C@H](O)CC[C@]4(C)[C@H]3CC[C@]12C
II = C[C@H](CCC(=O)O)[C@H]1CC[C@H]2[C@@H]3[C@H](O)C[C@@H]4C[C@H](O)CC[C@]4(C)[C@H]3CC[C@]12C
III = O=C(/C=C/c1ccc(O)c(O)c1)O[C@@H]1C[C@](O)(C(=O)O)C[C@@H](O)[C@H]1O
-- ask Please list these in order of increasing AUC(0-inf). Thank you! Rank the items, then write their labels in that order.
-- reply III, II, I
(III: 30.7 ng·h/mL, II: 138 ng·h/mL, I: 2810 ng·h/mL)
